Task for the reader: assign each of the following compounds its reported Ratio.
tested on: Mus musculus; test: Drug metabolism in mouse assessed as ratio of compound to 2-[(5R)-4-[2-(3-hydroxyphenyl)acetyl]-8-(trifluoromethyl)-1,2,3,5-tetrahydropyrido[2,3-e][1,4]diazepin-5-yl]acetic acid at 30 mg/kg, po; type: ADME, organism-based; design: dose 30 mg/kg, route oral; details: in vivo
# print the numeric value only

-- ask Given `CC(C)CC(=O)Oc1cccc(CC(=O)N2CCNc3nc(C(F)(F)F)ccc3[C@H]2CC(=O)O)c1` , state its recorded Ratio.
-- reply 0

-- ask Given `CC(C)(C)CC(=O)Oc1cccc(CC(=O)N2CCNc3nc(C(F)(F)F)ccc3[C@H]2CC(=O)O)c1` , state its recorded Ratio.
-- reply 0.179

-- ask Given `CC(C)C(=O)Oc1cccc(CC(=O)N2CCNc3nc(C(F)(F)F)ccc3[C@H]2CC(=O)O)c1` , state its recorded Ratio.
-- reply 0

-- ask Given `O=C(O)C[C@@H]1c2ccc(C(F)(F)F)nc2NCCN1C(=O)Cc1cccc(OC(=O)CC2CC2)c1` , state its recorded Ratio.
-- reply 0

-- ask Given `CCCCC(=O)Oc1cccc(CC(=O)N2CCNc3nc(C(F)(F)F)ccc3[C@H]2CC(=O)O)c1` , state its recorded Ratio.
-- reply 0.0175

###

Task for the reader: assign each of the following molecules its reported pEC50.
Target: Bombesin receptor subtype-3 (Homo sapiens)
Sequence (P32247 whole entry): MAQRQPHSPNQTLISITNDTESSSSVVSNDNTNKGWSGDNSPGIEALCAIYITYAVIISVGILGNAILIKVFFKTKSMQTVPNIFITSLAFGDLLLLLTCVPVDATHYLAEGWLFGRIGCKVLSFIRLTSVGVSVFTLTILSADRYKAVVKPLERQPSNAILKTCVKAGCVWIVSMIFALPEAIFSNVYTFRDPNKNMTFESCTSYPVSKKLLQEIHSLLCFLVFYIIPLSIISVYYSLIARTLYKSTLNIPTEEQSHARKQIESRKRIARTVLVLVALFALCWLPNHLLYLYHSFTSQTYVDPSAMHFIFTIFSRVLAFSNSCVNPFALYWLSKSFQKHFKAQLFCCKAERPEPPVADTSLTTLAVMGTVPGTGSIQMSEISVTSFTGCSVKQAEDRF
Assay: Agonist activity at human BRS3 expressed in CHO-K1 cells by IP-One HTRF assay
To interpret pEC50, take it as minus log10 of a concentration measured in moles per litre.

-- ask Given `CC(C)COC(=O)c1cccc(CC(=O)N2CCNc3nc(C(F)(F)F)ccc3[C@H]2CC(=O)O)c1` , state its recorded pEC50.
-- reply 8.38

-- ask Given `CC(C)CC(=O)Oc1cccc(CC(=O)N2CCNc3nc(C(F)(F)F)ccc3[C@H]2CC(=O)O)c1` , state its recorded pEC50.
-- reply 7.92

-- ask Given `O=C(O)C[C@@H]1c2ccc(C(F)(F)F)nc2NCCN1C(=O)Cc1cccc(C(=O)OCC2CC2)c1` , state its recorded pEC50.
-- reply 8.47

-- ask Given `CC(C)(C)CC(=O)Oc1cccc(CC(=O)N2CCNc3nc(C(F)(F)F)ccc3[C@H]2CC(=O)O)c1` , state its recorded pEC50.
-- reply 8.06

-- ask Given `CCCCOC(=O)c1cccc(CC(=O)N2CCNc3nc(C(F)(F)F)ccc3[C@H]2CC(=O)O)c1` , state its recorded pEC50.
-- reply 8.40

-- ask Given `O=C(O)C[C@@H]1c2ccc(C(F)(F)F)nc2NCCN1C(=O)Cc1cccc(OC(=O)CC2CC2)c1` , state its recorded pEC50.
-- reply 7.38

-- ask Given `CC(C)OC(=O)c1cccc(CC(=O)N2CCNc3nc(C(F)(F)F)ccc3[C@H]2CC(=O)O)c1` , state its recorded pEC50.
-- reply 7.40
